target: mTOR (Homo sapiens); assay: mTOR activity (no method described); type: biochemical
metric: log10(mTOR) (log10 of the value in µM)
A difference of one corresponds to tenfold mTOR; all values are log10 with mTOR in µM.

Observe how each entry below is paired with its result.
{"cpd smiles": "O=C(NC1CCN(CCO)CC1)c1ccc(-n2c(=O)ccc3cnc4ccc(-c5ccc(Cl)cc5)cc4c32)cc1", "log10(mTOR)": 0.18}
{"cpd smiles": "CC1CCN(CCCNC(=O)c2ccc(-n3c(=O)ccc4cnc5ccc(-c6ccc(Cl)cc6)cc5c43)cc2)CC1", "log10(mTOR)": 1.07}

Would you be so kind as to report log10(mTOR) for each listed record?
1. O=C(O)c1ccc(-n2c(=O)ccc3c(O)nc4ccc(-c5ccc(Cl)cc5)cc4c32)cc1
2. N#Cc1cc(-n2c(=O)ccc3cnc4ccc(-c5ccc(Cl)cc5)cc4c32)ccc1C(=O)N1CCOCC1

2.00
1.21

====

experiment: Solubility at pH 7.4; format: physicochemical
Please provide measured Sol @ pH 7.4 (ug/mL) for the entries that follow.
Give bare numbers, in ug/mL.

Observe how each entry below is paired with its result.
{"cpd smiles": "COC(=O)CN1Cc2cc(-n3c(=O)ccc4cnc5ccc(-c6ccc(CN(C)C)cc6)cc5c43)ccc2C1=O", "Sol @ pH 7.4 (ug/mL)": 14.8}
{"cpd smiles": "O=C1NCCc2cc(-n3c(=O)ccc4cnc5ccc(-c6ccc(Cl)cc6)cc5c43)ccc21", "Sol @ pH 7.4 (ug/mL)": 0}

Would you be so kind as to report Sol @ pH 7.4 (ug/mL) for each listed record?
1. O=C1NCc2cc(-n3c(=O)ccc4cnc5ccc(-c6ccc(OC7CCNCC7)cc6)cc5c43)ccc21
2. Cc1c(C#N)cccc1-n1c(=O)ccc2cnc3ccc(-c4ccc(N)nc4)cc3c21
3. CS(=O)(=O)c1ccc(-n2c(=O)ccc3cnc4ccc(-c5ccc(CN)cc5)cc4c32)cc1

1: 2.6; 2: 5.7; 3: 2.1

====

experiment: PAMPA permeability; format: in vitro ADME
Please provide measured PAMPA Permeability for the entries that follow.
One number for each entry, in ×10⁻⁶ cm/s.

Observe how each entry below is paired with its result.
{"molecule": "CN(C)C(=O)c1cccc(-n2c(=O)ccc3cnc4ccc(-c5ccc(N)nc5)cc4c32)c1 [Compound 332]", "units label": "×10⁻⁶ cm/s", "PAMPA Permeability": 31.9}
{"molecule": "CNCc1ccc(-c2ccc3ncc4ccc(=O)n(-c5ccc(C(=O)N6CCOCC6)cc5)c4c3c2)cc1 [Compound 198]", "units label": "×10⁻⁶ cm/s", "PAMPA Permeability": 6.1}
{"molecule": "CN(C)CCOc1ccc(-c2ccc3ncc4ccc(=O)n(-c5ccc(C(=O)N6CCOCC6)cc5)c4c3c2)cc1 [Compound 202]", "units label": "×10⁻⁶ cm/s", "PAMPA Permeability": 415}
{"molecule": "COc1cc(C(=O)NCCCN2CCC(C)CC2)ccc1-n1c(=O)ccc2cnc3ccc(-c4ccc(Cl)cc4)cc3c21 [Compound 255]", "units label": "×10⁻⁶ cm/s", "PAMPA Permeability": 1040}

Would you be so kind as to report PAMPA Permeability for each listed record?
1. CN(C)Cc1ccc(-c2ccc3ncc4ccc(=O)n(-c5ccc(C(=O)N6CCOCC6)cc5)c4c3c2)cc1 [Compound 86]
2. O=C(NCCN1CCOCC1)c1ccc(-n2c(=O)ccc3cnc4ccc(-c5ccc(Cl)cc5)cc4c32)cc1 [Compound 215]

459
492

Would you be so kind as to report PAMPA Permeability for each listed record?
1. O=C(NCCCO)c1ccc(-n2c(=O)ccc3cnc4ccc(-c5ccc(Cl)cc5)cc4c32)cc1 [Compound 214]
2. O=C(c1ccc(-n2c(=O)ccc3cnc4ccc(-c5ccc(Cl)c(C(=O)N6CCOCC6)c5)cc4c32)cc1)N1CCOCC1 [Compound 147]
3. CN1Cc2ccc(-c3ccc4ncc5ccc(=O)n(-c6ccc(C(=O)N7CCOCC7)cc6)c5c4c3)cc2C1 [Compound 244]
4. Nc1ccc(-c2ccc3ncc4ccc(=O)n(-c5ccc(C(=O)N6CCOCC6)cc5)c4c3c2)cn1 [Compound 334]
5. COc1cc(C(=O)NC2CC2)ccc1-n1c(=O)ccc2cnc3ccc(-c4ccc(F)cc4)cc3c21 [Compound 188]
6. O=C(NCCN1CCCC1)c1ccc(-n2c(=O)ccc3cnc4ccc(-c5ccc(Cl)cc5)cc4c32)cc1 [Compound 220]
7. COc1cc(-c2ccc3ncc4ccc(=O)n(-c5ccc(C(=O)NC6CC6)cc5)c4c3c2)ccc1Cl [Compound 221]
8. O=C(c1ccc(-n2c(=O)ccc3cnc4ccc(-c5ccc(Cl)cc5)cc4c32)cc1)N1CCOCC1 [Compound 85]

333
109
216
14.9
1250
127
133
794

Would you be so kind as to report PAMPA Permeability for each listed record?
1. Cc1cc(C(=O)NCCCN2CCS(=O)(=O)CC2)ccc1-n1c(=O)ccc2cnc3ccc(-c4ccc(Cl)cc4)cc3c21 [Compound 289]
2. CCN(CC)CCNC(=O)c1ccc(-n2c(=O)ccc3cnc4ccc(-c5ccc(Cl)cc5)cc4c32)c(OC)c1 [Compound 249]
3. NCc1cccc(-c2ccc3ncc4ccc(=O)n(-c5ccc(C(=O)N6CCOCC6)cc5)c4c3c2)c1 [Compound 180]
4. NC1(c2ccc(-c3ccc4ncc5ccc(=O)n(-c6ccc(C(=O)NC7CC7)cc6)c5c4c3)cc2)CC1 [Compound 97]

[141, 1070, 3.8, 35.8]

====

assay: PAMPA permeability; type: in vitro ADME
Binary call on PAMPA Permeability with cut-off 400 ×10⁻⁶ cm/s: strictly below means condition met, and equality or higher means condition not met.

Does the reported PAMPA Permeability of CC(N)c1ccc(-c2ccc3ncc4ccc(=O)n(-c5ccc(C(=O)N6CCOCC6)cc5)c4c3c2)cc1 (stereo not drawn) [Compound 207] stay below 400 ×10⁻⁶ cm/s? condition met

Does the reported PAMPA Permeability of CC1CCN(CCCNC(=O)c2ccc(-n3c(=O)ccc4cnc5ccc(-c6ccc(Cl)cc6)cc5c43)cc2)CC1 [Compound 286] stay below 400 ×10⁻⁶ cm/s? condition not met

Does the reported PAMPA Permeability of Cc1cc(C(=O)NCCN2CCCC2)ccc1-n1c(=O)ccc2cnc3ccc(-c4ccc(Cl)cc4)cc3c21 [Compound 295] stay below 400 ×10⁻⁶ cm/s? condition not met

Does the reported PAMPA Permeability of O=C(c1ccc(-n2c(=O)ccc3cnc4ccc(-c5ccc(Cl)cc5)cc4c32)cc1Cl)N1CCOCC1 [Compound 116] stay below 400 ×10⁻⁶ cm/s? condition met

Does the reported PAMPA Permeability of N#Cc1cccc(-n2c(=O)n(CCO)c3cnc4ccc(-c5ccc(Cl)cc5)cc4c32)c1 [Compound 404] stay below 400 ×10⁻⁶ cm/s? condition met

Does the reported PAMPA Permeability of O=C(NC1CC1)c1ccc(-n2c(=O)ccc3cnc4ccc(-c5ccc(Cl)cc5)nc4c32)cc1 [Compound 93] stay below 400 ×10⁻⁶ cm/s? condition met

Does the reported PAMPA Permeability of O=C(NCCCN1CCCC1)c1ccc(-n2c(=O)ccc3cnc4ccc(-c5ccc(Cl)cc5)cc4c32)cc1 [Compound 206] stay below 400 ×10⁻⁶ cm/s? condition not met

Does the reported PAMPA Permeability of N#Cc1cccc(-c2ccc3ncc4ccc(=O)n(-c5ccc(C(=O)N6CCOCC6)cc5)c4c3c2)c1 [Compound 124] stay below 400 ×10⁻⁶ cm/s? condition met

Does the reported PAMPA Permeability of O=C(O)c1cccc(-c2ccc3ncc4ccc(=O)n(-c5ccc(C(=O)N6CCOCC6)cc5)c4c3c2)c1 [Compound 131] stay below 400 ×10⁻⁶ cm/s? condition met

Does the reported PAMPA Permeability of Nc1cc(Cl)ccc1-c1ccc2ncc3ccc(=O)n(-c4ccc(C(=O)N5CCOCC5)cc4)c3c2c1 [Compound 136] stay below 400 ×10⁻⁶ cm/s? condition not met

Does the reported PAMPA Permeability of CN(C)C(=O)c1ccc(-n2c(=O)ccc3c[n+]([O-])c4ccc(-c5ccc(Cl)cc5)cc4c32)cc1 [Compound 208] stay below 400 ×10⁻⁶ cm/s? condition met

Does the reported PAMPA Permeability of O=C(c1ccc(-n2c(=O)ccc3cnc4ccc(-c5ccc(Cl)cc5)cc4c32)cc1)N1CC2CCC(C1)O2 [Compound 138] stay below 400 ×10⁻⁶ cm/s? condition not met

Does the reported PAMPA Permeability of CCN(CC)C(=O)c1ccc(-n2c(=O)ccc3cnc4ccc(-c5ccc(Cl)cc5)cc4c32)cc1 [Compound 132] stay below 400 ×10⁻⁶ cm/s? condition not met

Does the reported PAMPA Permeability of O=C(NCC1CCOCC1)c1ccc(-n2c(=O)ccc3cnc4ccc(-c5ccc(Cl)cc5)cc4c32)cc1 [Compound 288] stay below 400 ×10⁻⁶ cm/s? condition met

Does the reported PAMPA Permeability of Cc1cc(-c2ccc3ncc4ccc(=O)n(-c5ccc(C(=O)N6CCOCC6)cc5)c4c3c2)ccc1Cl [Compound 144] stay below 400 ×10⁻⁶ cm/s? condition not met
